The values you see were collected from paper PMC10101930.

# subject-of-test: NHR-86 (Caenorhabditis elegans, UniProt Q965W2)
# Sequence (Q965W2 130-405): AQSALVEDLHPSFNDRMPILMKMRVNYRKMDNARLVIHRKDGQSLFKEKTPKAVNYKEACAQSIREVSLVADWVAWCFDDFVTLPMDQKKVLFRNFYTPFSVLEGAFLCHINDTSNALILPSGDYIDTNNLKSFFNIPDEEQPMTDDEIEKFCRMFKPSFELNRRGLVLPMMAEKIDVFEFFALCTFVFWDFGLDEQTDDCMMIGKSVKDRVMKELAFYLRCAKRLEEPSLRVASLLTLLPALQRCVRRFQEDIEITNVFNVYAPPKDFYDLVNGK
# assay-details: intrinsic tryptophan fluorescence quenching of purified LBD
# Type: binding
pKd: −log10 of the molar value.
recorded-metric: pKd

molecule="NC(=O)c1cccc2nc3ccccc3nc12 [PCN, phenazine-1-carboxamide]" reading=4.62
